Provide the recorded Fat Mass for the entries that follow.
# Tested on: naturally aged mice
# Test Details: Anti-aging evaluation in naturally aged mice, Example 31, Table 55;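 further: Vehicle-dosed control mice received solution alone at matching volume, values compare test-compound-treated aged mice against that control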
# Format: in vivo, mouse
# Measurement Parameters: untreated 0.82 g
State just the number; it will be interpreted in g.

Which Fat Mass value belongs to CC12CCN(CC1)C(CN(C1CC1)S(C)(=O)=O)C2=O (centres unmarked) [LX-5707] ?
0.90

Entry under review: Cc1[nH]nc(C(F)(F)F)c1Cc1sc2c(c1C(=O)N1C[C@](C)(O)CO1)c(=O)n(C)c(=O)n2C(C)C [LX-3203] . Reported Fat Mass?
0.85

What value of Fat Mass has been recorded for this entry: CN[C@H](CC(C)C)C(=O)N[C@H]1C(=O)N[C@@H](CC(N)=O)C(=O)N[C@H]2C(=O)N[C@H]3C(=O)N[C@H](C(=O)N[C@H](C(=O)O)c4cc(O)cc(O)c4-c4cc3ccc4O)[C@H](O)c3ccc(c(Cl)c3)Oc3cc2cc(c3O[C@@H]2O[C@H](CO)[C@@H](O)[C@H](O)[C@H]2O[C@H]2C[C@](C)(N)[C@H](O)[C@H](C)O2)Oc2ccc(cc2Cl)[C@H]1O [LX-5424, Vancomycin]
0.84

Please report the recorded Fat Mass for C=C1CC[C@@H]2[C@](C)(CO)[C@H](O)CC[C@@]2(C)[C@@H]1C/C=C1/C(=O)OC[C@H]1O [LX-6800, Andrographolide] .
0.91

# Fat Mass lookup, item CCN(CC)C(=S)SSC(=S)N(CC)CC [LX-1601, Disulfiram]
1.20

Entry C[C@H](N)C(=O)N1C[C@H](CCCB(O)O)[C@](N)(C(=O)O)C1 [LX-3107, Numidargistat] has what Fat Mass?
0.99

Item [2H]C12CCN(CC1)C(CO)(COC)C2=O (centres unmarked) [LX-5722] has what recorded Fat Mass?
1.03

// lookup Fat Mass for C[C@@H](C(=O)Nc1ccc(Cl)cc1)[C@H]1CC[C@@H](c2ccnc3ccc(F)cc32)CC1 [LX-8805, Linrodostat]
0.87

Would you kindly share the measured Fat Mass for Cc1oncc1C(=O)Nc1ccc(C(F)(F)F)cc1 [LX-1603, Leflunomide] ?
0.92

Endpoint output: Fat Mass of CC1(C)[C@H]2COc3ccc4ccccc4c3[C@H]2N=C2SC(c3ccccc3)=C(c3ccccc3)N21 [LX-5201] . Value?
0.97

For the molecule O=C(O)c1cc(/N=N/c2ccc(S(=O)(=O)Nc3ccccn3)cc2)ccc1O [LX-1302, Sulfasalazine] , what Fat Mass is on record?
0.92
